Data credit: PubChem BioAssay

# z-score per entry
Assay: A549 lung cancer cell viability effects, profiling panel, resazurin fluorescence, 24 h, PK04 Diversity Set (AID 1171); note: test concentration not given here
Settings: higher = more signal, called active from +8 up or from −8 down
Give the figure only, with no unit attached.

[[record]]
compound = "C=CC[C@@H]1C=CC(ON=C(C)C)[C@@H](CO)O1 (stereo not given in full)"
reported_property = "z-score"
value_reported = -0.816


[ask] Entry under review: `CC(C)[C@@H](OCc1ccccc1)[C@H](C)CON=C1[C@H]2CCn3c(=O)n(-c4ccccc4)c(=O)n3[C@H]2[C@H](O)[C@@H]2O[C@H]12` . Reported z-score?
[reply] -1

[ask] Please answer likewise for `O=C1C2=CC[C@H]3C(=O)N(C[C@@H]4CCCO4)C(=O)[C@H]3[C@H]2[C@H](O)[C@@H]2O[C@H]12`
[reply] -0.824

[ask] Please answer likewise for `CCN1C(=O)[C@H]2[C@H]3[C@H](O)[C@H](O)CC(=NNC(=O)OCc4ccccc4)[C@@H]3CC[C@H]2C1=O`
[reply] -0.32

[ask] Please answer likewise for `CC(C)CON=C1C[C@@H](O)[C@@H](O)[C@@H]2[C@@H]3C(=O)N(C(C)(C)C)C(=O)[C@@H]3CC[C@@H]12`
[reply] -0.288

[ask] Please answer likewise for `COC(=O)C1=C(C)N(Cc2ccccc2)C2=C3C(=O)OCC[C@@H]3[C@@](O)(C(=O)OC)C(=O)N2[C@@H]1c1ccccc1`
[reply] 0.56

[ask] Please answer likewise for `COc1ccc(COC(=O)NN=C2C[C@@H](O)[C@@H](O)[C@@H]3[C@@H]4C(=O)N([C@@H](C)c5ccccc5)C(=O)[C@@H]4CC[C@H]23)cc1`
[reply] 0.541

[ask] Please answer likewise for `COC(OC)[C@@H](C)[C@H](OC)[C@@H](C)[C@H](OC)c1ccccc1`
[reply] -0.996

[ask] Please answer likewise for `O=C1[C@H]2[C@H]3[C@H](O)[C@H](O)CC(=NOCc4ccccc4)[C@H]3CC[C@H]2C(=O)N1C1CCCCC1`
[reply] -0.329

[ask] Please answer likewise for `CCOC(=O)CCN1C(=O)[C@H]2[C@@H]3C(=CC[C@H]2C1=O)C(=O)[C@H]1O[C@H]1[C@H]3O`
[reply] -0.899

[ask] Please answer likewise for `COc1ccc(O[C@H]2C=C[C@@H](c3ccccc3)O[C@@H]2COC(=O)CCC(C)=NOC[C@@H](O)COCc2ccco2)cc1`
[reply] 0.402

[ask] Please answer likewise for `O=C1C[C@@H](O)[C@@H](O)[C@@H]2[C@@H]3C(=O)N(C4CCCCC4)C(=O)[C@@H]3CC[C@@H]12`
[reply] -0.732

[ask] Please answer likewise for CC(CCC(=O)OC[C@H]1O[C@H](C#Cc2ccccc2)C=C[C@@H]1Oc1ccc(C)cc1)=NOC(C)CN1CCCc2nc(C)c(C)cc21 (stereo not given in full)
[reply] -0.719

[ask] Please answer likewise for `COc1cccc([C@H]2Oc3ccc(OC)cc3C(=NO[C@@H](C)c3cc(-c4c(C)cc(C)cc4C)no3)[C@@H]2O)c1`
[reply] 0.321

[ask] Please answer likewise for COC(=O)CC=C[C@@H](C)[C@@H](C=NOC(C)CN1CCCCc2nc(C)c(C)cc21)OC (stereo not given in full)
[reply] 0.0399
